Target Or Test System: human recombinant AChE (Homo sapiens)
Assay: biochemical
Condition Details: AChE, 100 μM; read-out: Inhibitory Ratio at 100 μM
Readout Type: inhibition at 100 µM (%)
Just the number in %, nothing appended.

// solved cases for inhibition at 100 µM follow
COC(=O)C[C@@H]1OC(C)(C)[C@@H]2[C@H](OC(C)=O)C[C@@]3(C)Oc4cc(C)oc(=O)c4C[C@@H]3[C@@]12C [Compound 1, Asperversin A] | 35.7
CC(=O)OC1CC2(C)Oc3cc(C)oc(=O)c3CC2C2(C)C=CC(=O)C(C)(C)C12 (centres unmarked) [Compound 7, Asperversin G] | 92.4

The compound listed as CC(=O)O[C@@H]1C[C@@]2(C)Oc3cc(C)oc(=O)c3C[C@@H]2[C@@]2(C)[C@H](CC(=O)O)OC(C)(C)[C@H]12 [Compound 2, Asperversin B] shows inhibition at 100 µM equal to 36.2

The recorded inhibition at 100 µM for entry Cc1cc2c(c(=O)o1)C[C@@H]1[C@@]3(C)[C@@H](O)CC(=O)OC(C)(C)[C@@H]3[C@H](O)C[C@@]1(C)O2 [Compound 8, asperdemin] equals 25.3

Record Cc1cc2c(c(=O)o1)C[C@@H]1[C@@]3(C)[C@@H](O)CC(=O)OC(C)(C)[C@@H]3CC[C@@]1(C)O2 [Compound 4, Asperversin D] . Reported inhibition at 100 µM: 50.2

====

inhibition at 100 µM values, listed per item
Target Or Test System: human recombinant AChE (Homo sapiens, UniProt P22303)
Sequence (P22303 32-614): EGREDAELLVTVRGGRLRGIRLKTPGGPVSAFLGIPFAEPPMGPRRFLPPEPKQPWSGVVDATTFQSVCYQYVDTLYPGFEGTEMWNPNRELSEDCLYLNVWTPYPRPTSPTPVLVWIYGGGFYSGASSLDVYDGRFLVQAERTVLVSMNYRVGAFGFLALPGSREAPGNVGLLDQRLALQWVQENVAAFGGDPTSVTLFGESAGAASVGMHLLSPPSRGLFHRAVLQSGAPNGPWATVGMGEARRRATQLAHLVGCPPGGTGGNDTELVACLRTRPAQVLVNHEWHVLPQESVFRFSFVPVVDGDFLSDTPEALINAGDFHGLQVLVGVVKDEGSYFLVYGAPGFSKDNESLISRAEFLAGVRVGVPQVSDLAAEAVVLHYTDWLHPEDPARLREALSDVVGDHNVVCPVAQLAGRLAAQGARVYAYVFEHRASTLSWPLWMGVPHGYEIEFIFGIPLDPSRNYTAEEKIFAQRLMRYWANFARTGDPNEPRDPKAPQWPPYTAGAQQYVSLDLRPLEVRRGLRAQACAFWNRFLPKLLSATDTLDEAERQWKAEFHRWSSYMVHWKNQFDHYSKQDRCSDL
Assay: biochemical
Condition Details: AChE, 100 μM; read-out: Inhibitory Ratio at 100 μM
Provide the reading as a plain figure in %.

Consider the worked cases shown below.
CC(=O)OC1CC2(C)Oc3cc(C)oc(=O)c3CC2C2(C)C(O)CC(=O)OC(C)(C)C12 (stereo not drawn) | 48.7
C=C(C)[C@@H]1[C@H](OC(C)=O)C[C@@]2(C)Oc3cc(C)oc(=O)c3C[C@@H]2[C@@]1(C)[C@H](CC(=O)OC)OC(C)=O | 27.6

# evaluate next
So for CC(=O)O[C@H]1CC(=O)OC(C)(C)[C@@H]2[C@H](OC(C)=O)C[C@@]3(C)Oc4cc(C)oc(=O)c4C[C@@H]3[C@@]12C , the logged inhibition at 100 µM turned out to be 62.9
